The entries below are paired with their reported GI50.
tested on: SK-MEL-28; assay: NCI tumour cell line growth inhibition, 48 h
Activity calls are given as the source filed them. Rule as the data show it: active = GI50 up to about 1.1 µM and inactive = higher.

Some solved cases for reference:
N=C(N)Nc1nc2cc(N)ccc2o1: > 100 µM (inactive)
CC(C)(C)c1cc(C(O)(C(F)(F)F)C(F)(F)F)c2c(c1)C(C(F)(F)F)(C(F)(F)F)OC(c1ccccc1)(C(C)(C)C)N2 (stereo not given): 9.16 µM (inactive)
COC(=O)CC(c1cn(S(=O)(=O)c2ccc(C)cc2)c2ccccc12)C1C[C@@H](C(=O)OC)N(C(=O)OC(C)(C)C)C1=O (stereo not given in full): > 100 µM (inactive)
Cc1nc2nnc(C)n2c2c1C(=O)Nc1ccccc1N2: > 100 µM (inactive)
CCC(CCC(C)C1CCC2C3CC=C4CC(OC5OC(CO)C(O)C(O)C5O)CCC4(C)C3CCC12C)C(C)C (stereo not given): > 100 µM (inactive)

Task item: Suppose we examine the compound O=C(C[C@H](NC(=O)OCc1ccccc1)C(=O)NC1Cc2ccccc2OC1=O)OCc1ccccc1 (stereo not given in full) ; what GI50 value has been reported?
Reply: > 100 µM (inactive)

Task item: Now try O=C1OCC2OC(=O)c3cc(O)c(O)c(O)c3-c3c(O)c(O)c(O)c4c3C(=O)OC(C2OC(=O)c2cc(O)c(O)c(O)c2-c2c1cc(O)c(O)c2O)C1OC(=O)C2C4=C(O)C(=O)C23Oc2cc(O)c4c(c2[C@H]13)O[C@H](c1ccc(O)c(O)c1)[C@@H](O)C4 (stereo not given in full) .
Reply: 66.7 µM (inactive)

Task item: And for `COc1cccc(-c2c(-c3ccccc3)[nH]c(C)c2C(=O)ONC(=O)c2ccccc2)c1` ?
Reply: 14.7 µM (inactive)

Task item: Okay, and `O=C(CCc1nnc2s/c(=C\c3ccc4c(c3)OCO4)c(=O)n12)Nc1cc(Cl)ccc1Cl` ?
Reply: > 100 µM (inactive)

Task item: Please give the result for O=C(O)C(F)(OC(F)(F)C(F)(OC(F)(F)C(F)(F)C(F)(F)F)C(F)(F)F)C(F)(F)F (stereo not given) too.
Reply: > 100 µM (inactive)
